Values were extracted from the Immune Epitope Database (IEDB).

target: HLA-A*02:01; test: IEDB peptide-MHC binding, purified MHC/competitive/fluorescence; filed as Kd, often an IC50 or EC50 that approximates it; bounds were set here for any values at or beyond the usual limits of such assays; details: source organism: Vibrio cholerae V52
pKd: −log10 of the molar value.
measured_attribute: pKd

* IGYRLGMGK | ≤ 4.70

====

molecular target: HLA-B*08:03; assay: IEDB peptide-MHC binding, purified MHC/direct/fluorescence; filed as Kd, often an IC50 or EC50 that approximates it; bounds were set here for any values at or beyond the usual limits of such assays; conditions: source organism: Yersinia enterocolitica subsp. enterocolitica 8081
pKd: −log10 of the molar value.
measured_attribute: pKd

• SDDQLRLLK = ≤ 4.70

====

target: HLA-B*15:09; test: IEDB peptide-MHC binding, purified MHC/competitive/fluorescence; filed as Kd, often an IC50 or EC50 that approximates it; bounds were set here for any values at or beyond the usual limits of such assays; details: source organism: Human immunodeficiency virus 1
pKd: −log10 of the molar value.
measured_attribute: pKd

* GTEEIKSLY | ≤ 4.70

====

Listed sequences paired with reported Kd
molecular target: HLA-B*07:02; assay: IEDB peptide-MHC binding, purified MHC/direct/fluorescence; filed as Kd, often an IC50 or EC50 that approximates it; bounds were set here for any values at or beyond the usual limits of such assays; settings: source organism: Pseudomonas aeruginosa
measured_attribute: Kd (nM)

- LPQTRWQAV: 28.3
- VVAVGGLAI: 251

====

target: HLA-A*26:01; experiment: IEDB peptide-MHC binding, purified MHC/competitive/fluorescence; filed as Kd, often an IC50 or EC50 that approximates it; bounds were set here for any values at or beyond the usual limits of such assays; details: source organism: Mycobacterium tuberculosis variant bovis BCG str. Pasteur 1173P2
pKd: −log10 of the molar value.
measured_attribute: pKd

* AVFDSFVER | ≤ 4.70

====

target: HLA-B*39:01; assay: IEDB peptide-MHC binding, purified MHC/direct/fluorescence; filed as Kd, often an IC50 or EC50 that approximates it; bounds were set here for any values at or beyond the usual limits of such assays; conditions: source organism: Picosynechococcus sp. PCC 7002
measured_attribute: Kd

* DTVLFNAGL | ≥ 20 µM

====

target: HLA-A*26:01; assay: IEDB peptide-MHC binding, purified MHC/competitive/radioactivity; filed as Kd, often an IC50 or EC50 that approximates it; bounds were set here for any values at or beyond the usual limits of such assays; conditions: source organism: Triticum aestivum
pKd: −log10 of the molar value.
measured_attribute: pKd

• VVLQQHSIAY = ≤ 4.16

====

target: HLA-A*31:01; experiment: IEDB peptide-MHC binding, purified MHC/direct/fluorescence; filed as Kd, often an IC50 or EC50 that approximates it; bounds were set here for any values at or beyond the usual limits of such assays; conditions: source organism: Escherichia coli
pKd: −log10 of the molar value.
measured_attribute: pKd

* LMQWWSDYV | 6.25

====

target: HLA-A*02:19; experiment: IEDB peptide-MHC binding, purified MHC/competitive/fluorescence; filed as Kd, often an IC50 or EC50 that approximates it; bounds were set here for any values at or beyond the usual limits of such assays; conditions: source organism: Vibrio vulnificus YJ016
pKd: −log10 of the molar value.
measured_attribute: pKd

- GMWCVLASR: ≤ 4.70

====

target: HLA-A*02:12; assay: IEDB peptide-MHC binding, purified MHC/competitive/fluorescence; filed as Kd, often an IC50 or EC50 that approximates it; bounds were set here for any values at or beyond the usual limits of such assays; settings: source organism: Vibrio vulnificus YJ016
pKd: −log10 of the molar value.
measured_attribute: pKd

• GMWCVLASR = 6.03

====

target: HLA-A*26:01; experiment: IEDB peptide-MHC binding, purified MHC/competitive/fluorescence; filed as Kd, often an IC50 or EC50 that approximates it; bounds were set here for any values at or beyond the usual limits of such assays; conditions: source organism: Vibrio cholerae V52
pKd: −log10 of the molar value.
measured_attribute: pKd

- IGYRLGMGK: ≤ 4.70

====

target: HLA-B*46:01; test: IEDB peptide-MHC binding, purified MHC/direct/fluorescence; filed as Kd, often an IC50 or EC50 that approximates it; bounds were set here for any values at or beyond the usual limits of such assays; conditions: source organism: Cryptosporidium parvum Iowa II
measured_attribute: Kd

• LPLESCFGV = ≥ 20 µM
• MPMSMPIPM = ≥ 20 µM

====

biological target: HLA-B*15:17; experiment: IEDB peptide-MHC binding, purified MHC/competitive/fluorescence; filed as Kd, often an IC50 or EC50 that approximates it; bounds were set here for any values at or beyond the usual limits of such assays; settings: source organism: Giardia lamblia ATCC 50803
pKd: −log10 of the molar value.
measured_attribute: pKd

- APDGFYPFK: ≤ 4.70

====

target: HLA-B*57:01; experiment: IEDB peptide-MHC binding, purified MHC/competitive/fluorescence; filed as Kd, often an IC50 or EC50 that approximates it; bounds were set here for any values at or beyond the usual limits of such assays; details: source organism: Homo sapiens
measured_attribute: Kd

• KQMEDGHTL = ≥ 20 µM

====

target: HLA-B*35:01; assay: IEDB peptide-MHC binding, purified MHC/competitive/fluorescence; bounds were set here for any values at or beyond the usual limits of such assays; conditions: source organism: Homo sapiens
pIC50: −log10 of the molar value.
measured_attribute: pIC50

• SYMMDDLELI = ≤ 4.70

====

target: HLA-B*08:01; assay: IEDB peptide-MHC binding, purified MHC/direct/fluorescence; filed as Kd, often an IC50 or EC50 that approximates it; bounds were set here for any values at or beyond the usual limits of such assays; details: source organism: Vibrio parahaemolyticus
measured_attribute: Kd

• DQFSIPIRY = ≥ 20 µM

====

target: HLA-A*30:02; test: IEDB peptide-MHC binding, purified MHC/competitive/radioactivity; filed as Kd, often an IC50 or EC50 that approximates it; bounds were set here for any values at or beyond the usual limits of such assays; conditions: source organism: Lymphocytic choriomeningitis virus (strain Armstrong)
pKd: −log10 of the molar value.
measured_attribute: pKd

* YCNYSKFWY | 5.89

====

target: HLA-B*39:01; assay: IEDB peptide-MHC binding, purified MHC/competitive/fluorescence; filed as Kd, often an IC50 or EC50 that approximates it; bounds were set here for any values at or beyond the usual limits of such assays; settings: source organism: Choclo virus
pKd: −log10 of the molar value.
measured_attribute: pKd

- HWMDATFNI: ≤ 4.70

====

target: HLA-B*15:02; assay: IEDB peptide-MHC binding, purified MHC/competitive/fluorescence; filed as Kd, often an IC50 or EC50 that approximates it; bounds were set here for any values at or beyond the usual limits of such assays; settings: source organism: Vibrio antiquarius
pKd: −log10 of the molar value.
measured_attribute: pKd

* MMQGTPYVY | 8.23

====

molecular target: HLA-B*35:01; test: IEDB peptide-MHC binding, purified MHC/competitive/fluorescence; bounds were set here for any values at or beyond the usual limits of such assays; details: source organism: Tarsius lariang
pIC50: −log10 of the molar value.
measured_attribute: pIC50

* TEAEKWPFF | ≤ 4.70

====

target: HLA-A*26:01; test: IEDB peptide-MHC binding, purified MHC/competitive/radioactivity; filed as Kd, often an IC50 or EC50 that approximates it; bounds were set here for any values at or beyond the usual limits of such assays; conditions: source organism: Mammarenavirus lassaense
pKd: −log10 of the molar value.
Parameter pKd: see the listing below.
measured_attribute: pKd

- MCPFLFLAV: ≤ 4.11
- VPVHLCNLI: ≤ 4.11

====

biological target: HLA-A*03:01; test: IEDB peptide-MHC binding, purified MHC/competitive/fluorescence; filed as Kd, often an IC50 or EC50 that approximates it; bounds were set here for any values at or beyond the usual limits of such assays; conditions: source organism: Escherichia coli E22
pKd: −log10 of the molar value.
measured_attribute: pKd

- MFIIKYFKK: ≤ 4.70
- YQTYVSPGA: ≤ 4.70

====

biological target: HLA-B*35:01; assay: IEDB peptide-MHC binding, purified MHC/competitive/radioactivity; filed as Kd, often an IC50 or EC50 that approximates it; bounds were set here for any values at or beyond the usual limits of such assays; settings: source organism: Variola virus
measured_attribute: Kd

* KPKPAVRYAI | ≥ 69.9 µM

====

target: HLA-B*57:01; assay: IEDB peptide-MHC binding, purified MHC/direct/fluorescence; filed as Kd, often an IC50 or EC50 that approximates it; bounds were set here for any values at or beyond the usual limits of such assays; details: source organism: West Nile virus strain PTRoxo
pKd: −log10 of the molar value.
measured_attribute: pKd

• EIPDVLNSL = ≤ 4.70

====

molecular target: HLA-B*15:09; assay: IEDB peptide-MHC binding, purified MHC/competitive/fluorescence; filed as Kd, often an IC50 or EC50 that approximates it; bounds were set here for any values at or beyond the usual limits of such assays; settings: source organism: Mycobacterium tuberculosis str. Haarlem
measured_attribute: Kd (µM)

- IPAPGLGAL: 4.06
